The measurements presented in this section are drawn from PubChem BioAssay.

Assay: LAP4-GFP expression modulators in yeast, confirmation, cell-based, cherry picks, flow cytometry, mother/daughter gates (AID 2271);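 also: ratio of sample to DMSO plate mean so 100% equals DMSO level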
Settings: S. cerevisiae LAP4-GFP strain, 3 h, measured here: daughter cell gate response, at 10 µM, stronger effect = higher value, 100 means same as DMSO control
test_readout: GFP response relative to DMSO (%)
Write down the numeric answer in % and omit the unit.

molecule=O=C(/C=C/c1ccccn1)c1cc(Br)ccc1O units_text=% test_value=177
molecule=O=C(O)C1CCN(S(=O)(=O)c2ccc(Oc3ccccc3)cc2)CC1 units_text=% test_value=97.9
molecule="Cc1ccc(NC(=S)NCC23C=CC(O2)C2C(=O)N(c4ccc(C)cc4)C(=O)C23)cc1 (centres undefined)" units_text=% test_value=105

Query: GFP response relative to DMSO; subject: O=C(N/N=C/c1cccc(Oc2ccccc2)c1)c1ccncc1
99

Check Cc1cc(C)nc(/N=c2/ssnc2Cl)c1 too.
131

Check S=C(Nc1ccc(Cl)cc1)Nc1ccc2cn[nH]c2c1 too.
108

Check Nc1cc(N)nc(SCC(=O)N2CCc3ccccc32)n1 too.
97.6

----------
# binding (% of control) listing for each entry below
Tested on: anti-desmoglein-3 scFv antibody binding to human DSG3
Test: inhibitors of anti-DSG3 scFv binding to DSG3, pilot screen, biochemical, validation compound set, bead-based, flow cytometry (AID 588368);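 also: signal is the median channel fluorescence of bead-bound GFP antibody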
Conditions: Protein G beads, DSG3-Fc, scFv-GFP binding, at 10 µM, stronger effect = lower value
Write down the numeric answer in % and omit the unit.

Query: binding (% of control); subject: CC(C)Cc1nc(NCCN2CCOCC2)c(C#N)c2c1COC(C)(C)C2
104

Check OCC1(CCOc2ccccc2)CCN(CCCn2cccn2)CC1 too.
101

Check COc1cccc(OC)c1C(=O)Nc1nc2ccc([N+](=O)[O-])cc2s1 too.
101

Check Cc1ccc2c(c1)c1c3n2CCCNC3CCC1 (stereo not given) too.
111

Check CCN1C(=O)C(CC(=O)Nc2ccc(F)cc2)N(Cc2ccc3c(c2)OCO3)C1=S (stereo not given) too.
107

Check COc1ccc([C@@H]2Sc3ccccc3N(CCN(C)C)C(=O)[C@@H]2OC(C)=O)cc1 too.
99.1

Check COC(=O)C1=C(C)NC(C)=C(C(=O)OC)C1c1ccccc1[N+](=O)[O-] too.
104

Check Cc1ccc2[nH]c3c(=O)n(CCCN4CCN(C)CC4)cnc3c2c1 too.
99.3

Check COC(=O)CN1CC(=O)N(c2ccccc2)C1=S too.
106

Check CC1(C)S[C@@H]2[C@H](NC(=O)C(C(=O)O)c3ccccc3)C(=O)N2[C@H]1C(=O)O (stereo not given in full) too.
97.2

----------
Test: inhibitors of CD8+ T cell-vesicle binding, pilot screen, LFA-1/ICAM-1 modulator project, MLPCN validation set, flow cytometry (AID 2523);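 also: mean PE anti-B7-1 fluorescence of CD8+ cells relative to row control; 100% = QL9-loaded vesicles with DMSO vehicle in the same plate row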
Conditions: 2C mouse CD8+ T cells, at 7 µM, stronger effect = lower value
# vesicle binding response listing for each entry below
Write down the numeric answer in % and omit the unit.

Some compounds with recorded vesicle binding response:
compound=CC(C)NC[C@@H](O)c1ccc(O)c(O)c1 test_readout="vesicle binding response" test_value=125
compound=O=C(/C=C/c1ccc(Cl)cc1)NCCc1ccccc1 test_readout="vesicle binding response" test_value=270
compound="Cc1ncc([N+](=O)[O-])n1CC(C)O (configuration not stated)" test_readout="vesicle binding response" test_value=149
compound="Cc1ccc2c(c1)c1c3n2CCCNC3CCC1 (configuration not stated)" test_readout="vesicle binding response" test_value=229
compound=CCc1c(C)c2ccc(OCC(=O)OC(C)C)c(C)c2oc1=O test_readout="vesicle binding response" test_value=142
compound=CCOC(=O)c1ccc2[nH]c(C)c(CCC(C)=O)c(=O)c2c1 test_readout="vesicle binding response" test_value=228

For the next question, use this compound.
Query: vesicle binding response; subject: C=C(C)COc1ccc(-c2n[nH]c(C)c2-c2ccc(OC)cc2)c(O)c1
175
